Where do these numbers come from? They come from PubChem BioAssay (NCI).

- Test system: MDA-MB-435
- protocol-details: NCI tumour cell line growth inhibition, 48 h
measured-attribute: TGI

[[record]]
molecule = "CC(=O)OC12CC(C(F)(F)F)(C(F)(F)F)OC1(OC(C)=O)CC(C(F)(F)F)(C(F)(F)F)O2 (stereo unspecified)"
observed_result = "> 100 µM"

[[record]]
molecule = "CCn1c(-c2ccc(OC)cc2)nc2c1C(=O)c1ccccc1C2=O"
observed_result = "> 100 µM"

[[record]]
molecule = "CCNc1cc2oc(=O)cc(C(F)(F)F)c2cc1C"
observed_result = "> 100 µM"

[[record]]
molecule = "CC(=O)NNC(=S)/N=C\\c1c(O)c2ccccc2oc1=O"
observed_result = "> 100 µM"

[[record]]
molecule = "COC(=O)c1ccccc1NC(=S)NN(C)C"
observed_result = "> 100 µM"

[[record]]
molecule = "CC(=O)NNc1nc(C)c(C(/C=C/c2ccc([N+](=O)[O-])cc2)=N/NC(N)=O)s1"
observed_result = "> 100 µM"

